# Experimental target: T1, human CDH6 on cells (human, UniProt P55285 54-790)
# T1 sequence: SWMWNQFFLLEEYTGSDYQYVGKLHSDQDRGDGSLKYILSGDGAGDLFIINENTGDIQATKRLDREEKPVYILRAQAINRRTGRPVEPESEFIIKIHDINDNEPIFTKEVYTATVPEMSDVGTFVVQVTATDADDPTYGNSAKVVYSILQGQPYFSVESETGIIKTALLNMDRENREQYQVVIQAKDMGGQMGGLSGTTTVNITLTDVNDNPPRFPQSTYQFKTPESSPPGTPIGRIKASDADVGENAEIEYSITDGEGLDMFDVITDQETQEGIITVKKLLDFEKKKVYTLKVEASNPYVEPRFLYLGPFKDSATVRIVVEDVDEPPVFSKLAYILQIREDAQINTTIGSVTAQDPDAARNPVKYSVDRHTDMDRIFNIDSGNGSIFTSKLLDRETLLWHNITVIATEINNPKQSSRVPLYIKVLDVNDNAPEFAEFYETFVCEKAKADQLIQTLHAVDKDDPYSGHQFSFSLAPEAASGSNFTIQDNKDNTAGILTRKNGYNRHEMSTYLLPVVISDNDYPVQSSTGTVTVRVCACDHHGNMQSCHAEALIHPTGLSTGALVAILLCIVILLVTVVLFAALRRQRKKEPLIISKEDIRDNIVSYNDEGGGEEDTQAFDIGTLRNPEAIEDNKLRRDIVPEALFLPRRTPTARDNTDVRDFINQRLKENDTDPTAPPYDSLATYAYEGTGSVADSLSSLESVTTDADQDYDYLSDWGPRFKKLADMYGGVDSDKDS
# Experiment: cell-based or functional assay
Readout name: percent inhibition at 1.22 nM ADC, SNU8 cells (%)

| Binder | Test value |
| --- | --- |
| NOV0720-SMCC-DM1 (antibody, human IgG1, lambda, V domains shown, SMCC-DM1 on primary amines, sites not stated) VH: QVQLQQSGPGLVKPSQTLSLTCAISGDSVSSNSAGWNWIRQSPSRGLEWLGRIYYRSKWYNDYAVSVKSRITINPDTSKNQFSLQLNSVTPEDTAVYYCAREKYTVSFYDFFDYWGQGTLVTVSS VL: DIELTQPPSVSVSPGQTASITCSGDNIGSMTAHWYQQKPGQAPVLVIYDKNERPSGIPERFSGSNSGNTATLTISGTQAEDEADYYCQSWDDSYNSVVFGGGTKLTVLG | 3.56 |
| NOV0690-SMCC-DM1 (antibody, human IgG1, lambda, V domains shown, SMCC-DM1 on primary amines, sites not stated) VH: QVQLLESGGGLVQPGGSLRLSCAASGFTFSDHAIDWVRQAPGKGLEWVSVIAGDGSITYYADSVKGRFTISRDNSKNTLYLQMNSLRAEDTAVYYCARDTGVYREYMDVWGQGTLVTVSS VL: DIELTQPPSVSVSPGQTASITCSGDAIGTKFAHWYQQKPGQAPVLVIYYDHERPSGIPERFSGSNSGNTATLTISGTQAEDEADYYCYSRASSNLVFGGGTKLTVLG | 18.4 |
| NOV0705-SMCC-DM1 (antibody, human IgG1, lambda, V domains shown, SMCC-DM1 on primary amines, sites not stated) VH: QVQLVQSGAEVKKPGESLKISCKGSGYSFTNYWIGWVRQMPGKGLEWMGFIDPGVSYTRYSPSFQGQVTISADKSISTAYLQWSSLKASDTAMYYCARVLAHSTEYNWPAFWGQGTLVTVSS VL: DIVLTQPPSVSGAPGQRVTISCSGSSSNIGLDYVNWYQQLPGTAPKLLIYRNKQRPSGVPDRFSGSKSGTSASLAITGLQAEDEADYYCQAWAGRTNYVVFGGGTKLTVLG | 6.4 |
